From: the OligoGym collection

Target: KRTAP10-10
Test: pooled miR-30 sensor sort-seq; sequence = guide strand; also: reference of the scale not given here
Settings: shRNA
# sensor-assay potency score (higher = more potent) >= -0.6 gives true, anything below gives false

Enquiry: sensor-assay potency score (higher = more potent) >= -0.6 for TAGGCACGAAGCACACAGGCTT ?
Return: true

Enquiry: sensor-assay potency score (higher = more potent) >= -0.6 for TAGACTGCTGGTAGCATGGGGT ?
Return: true

Enquiry: sensor-assay potency score (higher = more potent) >= -0.6 for TAGCAGACGGACTTAGAGCAGA ?
Return: false

Enquiry: sensor-assay potency score (higher = more potent) >= -0.6 for AAGCACACAGGCTTGTTACAGA ?
Return: true

Enquiry: sensor-assay potency score (higher = more potent) >= -0.6 for TGGTAGCATGGGGTTGTGCAGG ?
Return: false

Enquiry: sensor-assay potency score (higher = more potent) >= -0.6 for TGCAGGAGCTGGTGTAGCCTGA ?
Return: false

Enquiry: sensor-assay potency score (higher = more potent) >= -0.6 for TTAGTTCTGCAGAACTTGGGTC ?
Return: true

Enquiry: sensor-assay potency score (higher = more potent) >= -0.6 for AAGACTCGGAGCAGGTAGGCAC ?
Return: false

Enquiry: sensor-assay potency score (higher = more potent) >= -0.6 for TTACAGACGGGCACGCAGCAGA ?
Return: false

Enquiry: sensor-assay potency score (higher = more potent) >= -0.6 for TGGGCAGTCGACTACCCGCCAA ?
Return: false

----------
Molecular target: CREG1
Test: pooled miR-30 sensor sort-seq; sequence = guide strand
Settings: shRNA
Please respond with reported sensor-assay potency score (higher = more potent) for every item in the list.
Lab note: jot the number down without any unit.

Enquiry: May I ask what sensor-assay potency score (higher = more potent) has been recorded for TTTGCAATATCCATTTCTGTTT ?
Return: -1.42

Enquiry: May I ask what sensor-assay potency score (higher = more potent) has been recorded for TAGAAATAGGGCACGCCGCTGC ?
Return: -0.314

Enquiry: May I ask what sensor-assay potency score (higher = more potent) has been recorded for TTTCTTGCAGAAGTTGGTCTGT ?
Return: 0.391

Enquiry: May I ask what sensor-assay potency score (higher = more potent) has been recorded for ATATTGGTTATATTCAACTTAG ?
Return: -1.21

Enquiry: May I ask what sensor-assay potency score (higher = more potent) has been recorded for TTTGTGGATCAAATCCATGTTT ?
Return: -0.755

Enquiry: May I ask what sensor-assay potency score (higher = more potent) has been recorded for TTCTTGCAGAAGTTGGTCTGTG ?
Return: -0.659

Enquiry: May I ask what sensor-assay potency score (higher = more potent) has been recorded for TTGTGGATCAAATCCATGTTTC ?
Return: -1.13

Enquiry: May I ask what sensor-assay potency score (higher = more potent) has been recorded for TGGTCCACCAAAGTAGTCCAGG ?
Return: -1.37

Enquiry: May I ask what sensor-assay potency score (higher = more potent) has been recorded for TCCAATAACAGGTCAACTCTAT ?
Return: -0.715

----------
Target: ATP13A3
Assay: pooled miR-30 sensor sort-seq; sequence = guide strand
Conditions: shRNA
# sensor-assay potency score (higher = more potent) >= -0.7 gives met, anything below gives not met

Enquiry: sensor-assay potency score (higher = more potent) >= -0.7 for TATAACACTGAACAGCTGGAAA ?
Return: not met

Enquiry: sensor-assay potency score (higher = more potent) >= -0.7 for TAGATTTTGGACTTGAAACTGG ?
Return: met

Enquiry: sensor-assay potency score (higher = more potent) >= -0.7 for TTAATTGCAGCTCTGACACAGG ?
Return: met

Enquiry: sensor-assay potency score (higher = more potent) >= -0.7 for TTGACGTACAAGAAACACCTTC ?
Return: met
